- Measured on: hROMK1 (Kir1.1) (Homo sapiens (Human), UniProt P48048)
- Sequence (P48048 whole entry): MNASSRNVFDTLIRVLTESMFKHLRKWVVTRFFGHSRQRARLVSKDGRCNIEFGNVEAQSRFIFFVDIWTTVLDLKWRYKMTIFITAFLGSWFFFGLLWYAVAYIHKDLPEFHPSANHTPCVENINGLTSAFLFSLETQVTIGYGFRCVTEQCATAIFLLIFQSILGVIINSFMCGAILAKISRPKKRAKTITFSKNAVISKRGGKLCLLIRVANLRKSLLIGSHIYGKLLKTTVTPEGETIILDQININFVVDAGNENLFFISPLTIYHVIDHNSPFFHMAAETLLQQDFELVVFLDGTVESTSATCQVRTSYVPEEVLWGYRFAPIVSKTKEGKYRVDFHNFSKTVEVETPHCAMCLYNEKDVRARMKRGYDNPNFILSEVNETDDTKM
- Procedure text: ^86Rb^+ Efflux Assay
- Format: cell-based
- Run parameters: CHO-DHFR- cells stably expressing hROMK1 (Kir1.1); value in parentheses at the end of each Example; read-out: IC50 in the ^86Rb^+ Efflux Assay
Doc: threshold 0.09 µM (exclusive). Items with IC50 beneath it return t; others return f.

{"columns": ["Molecule", "Class"],
 "data": [
  ["N#Cc1ccc2c(c1)CCCC2CN1CCN(CCc2ccc3c(c2)COC3=O)CC1 (centres unmarked)", "f"],
  ["N#Cc1ccc(CCN2CCN(CCc3ccc([N+](=O)[O-])cc3)CC2)cc1F", "f"],
  ["C[C@H]1Cc2cc(CCN3CCN(CCc4ccc5c(c4)C[C@H](C)OC5=O)CC3)ccc2C(=O)O1", "f"],
  ["N#Cc1cc(F)c(CCN2CCN(CCc3ccc4c(c3)COC4=O)CC2)cc1F", "f"]
]}

Prompt: Please let me know if "COc1cc(CCN2CCN(CCc3ccc4c(c3)COC4=O)CC2)c(Cl)cc1C#N" shows IC50 below 0.09 µM.
Completion: f

Prompt: Please let me know if "O=[N+]([O-])c1ccc(CCN2CC3CCC2CN3CCc2ccc([N+](=O)[O-])cc2)cc1" shows IC50 below 0.09 µM.
Completion: f

Prompt: Please let me know if "COc1c(C#N)ccc(CCN2CCN(CCc3ccc4c(c3C)COC4=O)CC2)c1Cl" shows IC50 below 0.09 µM.
Completion: t

Prompt: Please let me know if "COc1cc(CCN2CCN(CCc3ccc4c(c3)COC4=O)CC2)c(F)cc1C#N" shows IC50 below 0.09 µM.
Completion: t

----------
I'd be grateful if you could share measured pIC50 for these entries.
- Measured on: hROMK1 (Kir1.1) (Homo sapiens (Human), UniProt P48048)
- Procedure text: ^86Rb^+ Efflux Assay
- Type: cell-based
- Run parameters: CHO-DHFR- cells stably expressing hROMK1 (Kir1.1); value in parentheses at the end of each Example; read-out: IC50 in the ^86Rb^+ Efflux Assay
Numbers only, as −log10 of the molar value.

Examples with answers:
{"columns": ["Compound", "Val"],
 "data": [
  ["COc1c(C#N)ccc(CCN2CCN(CCc3ccc4c(c3C)COC4=O)CC2)c1F [Example 73]", 7.04],
  ["O=C1OCc2cc(CCN3CCN(CCc4ccc(-n5cnnn5)nc4)CC3)ccc21 [Example 42]", 6.04],
  ["COc1c(C#N)ccc(CCN2CCN(CCc3ccc4c(c3)COC4=O)CC2)c1Cl [Example 87]", 6.80],
  ["O=[N+]([O-])c1ccc(CCN2CC3CCC(C2)N3CCc2ccc([N+](=O)[O-])cc2)cc1 [Example 16]", 6.72],
  ["Cc1c(CCN2CCN(CCc3ccc(C#N)c(F)c3Cl)CC2)ccc2c1COC2=O [Example 86]", 7.11],
  ["Cc1c(CCN2CCN(CCc3ccc(-n4cnnn4)nc3)CC2)ccc2c1COC2=O [Example 43]", 6.21]
]}

Go through the items and report each one's pIC50.
1. COc1cc(CCN2CCN(CCc3ccc4c(c3)COC4=O)CC2C(F)(F)F)ccc1C#N (stereo not shown) [Example 56]
2. N#Cc1c(F)cc(CCN2CCN(CCc3ccc([N+](=O)[O-])cc3)CC2)cc1F [Example 28]
3. Cc1cc(C#N)ccc1CCN1CCN(CCc2ccc([N+](=O)[O-])cc2)CC1 [Example 23]
4. N#Cc1cc(Cl)c(CCN2CCN(CCc3ccc4c(c3)COC4=O)CC2)cc1F [Example 78]

Completion:
1: 6.57; 2: 6.80; 3: 7.21; 4: 7.12
